assayed_target: Thioredoxin reductase 1, cytoplasmic (Rattus norvegicus) (UniProt O89049)
Sequence (O89049 whole entry, looked up): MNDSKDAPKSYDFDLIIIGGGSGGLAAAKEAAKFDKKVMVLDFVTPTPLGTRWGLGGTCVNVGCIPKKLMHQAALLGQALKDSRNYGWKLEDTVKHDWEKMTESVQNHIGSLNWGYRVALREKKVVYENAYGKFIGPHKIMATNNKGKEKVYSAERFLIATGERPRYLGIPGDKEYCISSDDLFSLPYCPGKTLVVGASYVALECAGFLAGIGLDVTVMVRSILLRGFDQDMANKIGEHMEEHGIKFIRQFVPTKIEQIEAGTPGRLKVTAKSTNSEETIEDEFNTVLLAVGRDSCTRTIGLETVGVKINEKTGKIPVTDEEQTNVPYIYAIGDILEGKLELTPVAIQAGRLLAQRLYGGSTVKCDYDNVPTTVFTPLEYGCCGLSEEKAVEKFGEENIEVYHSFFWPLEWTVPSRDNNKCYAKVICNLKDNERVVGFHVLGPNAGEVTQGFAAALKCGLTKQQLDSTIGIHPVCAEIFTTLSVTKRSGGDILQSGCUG
procedure_summary: qHTS Assay for Inhibitors of Mammalian Selenoprotein Thioredoxin Reductase 1 (TrxR1) (AID 488773); further: nearly all actives have a fitted effect of over 40% in size; further: potency means the concentration at half of the fitted maximal effect
conditions_used: purified TrxR1 enzyme activity; inhibition; series mostly up to 57.1 µM
Source text: The selenoprotein thioredoxin reductase (TrxR; EC 1.8.1.9) is a FAD containing homodimeric pyridine nucleotide-disulfide oxidoreductase with many cellular roles. Together with NADPH and its prime substrate thioredoxin (Trx), the enzyme forms the core of the Trx system. […] This BioAssay is a validation of an NADPH fluorescence-based, dual-purpose qHTS rTrxR1 assay designed to find potential inhibitors and substrates of rTrxR1. […]
Inconclusive results are not listed. Activity calls are given as the source filed them. The call rests on the fitted dose curve; in most records, active means well fitted inhibition curve with a large enough effect; inconclusive means small, poorly fitted or top-dose-only effect; inactive means no such curve, though single readings can be large or run the other way.
measured_metric: Potency

Below, 4 compounds whose answers are already recorded.
{"columns": ["compound", "Potency"],
 "data": [
  ["O=Nc1c(-c2c(O)[nH]c3ccccc23)[nH]c2ccccc12", "inactive"],
  ["O=C1c2ccccc2C(=O)c2c(NCCc3ccc(O)cc3)ccc(NCCc3ccc(O)cc3)c21", "inactive"],
  ["CN1C2CCCC1CC(NC(=O)c1nn(C)c3ccccc13)C2 (configuration not stated)", "inactive"],
  ["S=C(Nc1ccccc1)Nc1nccs1", "5.97 µM (active)"]
]}

Problem: Which Potency value belongs to C[C@H](Cc1ccccc1)Nc1ncnc2c1ncn2[C@@H]1O[C@H](CO)[C@@H](O)[C@H]1O ?
Result: inactive

Problem: Same again, this time with N.N.O=C(O)C1(C(=O)O)CCC1.[Pt+2]
Result: 0.267 µM (active)

Problem: Same again, this time with N#C/C(=C\c1ccc(O)c(O)c1)C(=O)Nc1ccccc1
Result: inactive

---

procedure_summary: qHTS Assay for Lipid Storage Modulators (AID 1519); further: on the % scale 0 is the no-effect control and ±100 the full control effect
conditions_used: Drosophila S3 cells, BODIPY lipid droplet/cell ratio, laser cytometry; at 57.5 µM (top of the series); cells loaded with oleic acid
Records with an inconclusive call do not appear.
measured_metric: activity change, negative = inhibition (%)
Give the number; % is assumed, so skip it.

{"columns": ["compound", "unit_label", "activity change, negative = inhibition"],
 "data": [
  ["NC(=O)C[C@H](NC(=O)Cc1ccc(O)cc1O)C(=O)O", "%", -1.96]
]}

Problem: Which activity change, negative = inhibition value belongs to O=C(OC1Cc2c(O)cc(O)cc2OC1c1cc(O)c(=O)c2c(O)c(O)cc(C3Oc4cc(O)cc(O)c4CC3OC(=O)c3cc(O)c(O)c(O)c3)c2c1)c1cc(O)c(O)c(O)c1 (stereo not given) ?
Result: 15

Problem: Same again, this time with N[C@@H](C(=O)O)c1ccc(P(=O)(O)O)cc1
Result: 2.44

Problem: Same again, this time with COc1ccc2c(c1)CCC1[C@@H]2CCC2(C)[C@@H](NCCCCCCN3C(=O)C=CC3=O)CC[C@@H]12 (stereo not given in full)
Result: -5.78

Problem: Same again, this time with Cc1ccccc1N=C(N)Nc1ccccc1C
Result: 3.82

---

procedure_summary: qHTS for Hypoxia signaling pathway (HIF-1) antagonists against the NCATS CANVASS Library (AID 1347374); further: nearly all actives have a fitted effect of over 60% in size
conditions_used: HRE-bla ME-180 cells, HIF-1 beta-lactamase reporter, CoCl2; series mostly up to 38.3 µM
Results filed as inconclusive are left out. The source made the active and inactive calls. The call rests on the fitted dose curve; in most records, active means well fitted inhibition curve with a large enough effect; inconclusive means small, poorly fitted or top-dose-only effect; inactive means no such curve, though single readings can be large or run the other way. Numbered stars: 1 amine (or outer) side, 2 acyl side, 3 side chain; on linkers, the order of the positions; unused ones are H or OH. Bridge positions count the residues as written; N and C are the ends. Square brackets hold non-standard residues; d marks the D form. Peptide text beside a SMILES is read from it. ξ: configuration not given here. Phe(3R-OH) = O=C([C@@H](N[*:1])[C@H](O[*:3])c1ccccc1)[*:2]; NMeTrp(4-OMe) = CN[C@@H](Cc1c[nH]c2cccc(OC)c12)C(=O)O; ξThr(3R)(O-yl) = C[C@@H](O[*:3])C(N[*:1])C(=O)[*:2]; NMeThr(3ξ) = CN[C@H](C(=O)O)C(C)O; NMeL = CN[C@@H](CC(C)C)C(=O)O; NMeV = CN[C@H](C(=O)O)C(C)C; ξIle = CC[C@H](C)C(N)C(=O)O; ξV = CC(C)C(N)C(=O)O
Returns: one label drawn from Yes for active, No for inactive

{"columns": ["compound", "class_name"],
 "data": [
  ["C=C1C[C@@]23C=CC(=O)[C@@](C)(CCC(=O)Nc4c(O)ccc(C(=O)O)c4O)C2C[C@@H]1CC3O (some centres not stated)", "No"],
  ["CCCCCCCCCCCCCCCC(=O)OC/C=C(\\C)CCCC(C)CC(C)C(C)C (configuration not stated)", "No"],
  ["CO[C@@H]1C[C@@H](C[C@H]2CC[C@H](C)[C@H]([C@@H](C)C(=O)O)O2)O[C@]2(O[C@](C)([C@H]3CC[C@@](C)([C@@H]4O[C@@H]([C@H]5O[C@](C)(O)[C@H](C)C[C@@H]5C)C[C@@H]4C)O3)C[C@H]2C)[C@@H]1C", "Yes"],
  ["C=C1C(=O)C[C@H]2C[C@@H]1[C@]2(C)CCC=C(C)C", "No"]
]}

Problem: Short answer needed: outcome of this test for CCC[C@@H](C)/C=C(\C)[C@H](O)[C@H](C)/C=C/CC[C@@H](O)[C@H](C)[C@H](O)[C@H](C)[C@H](O)[C@H](C)[C@H]1O[C@H]([C@H](C)C(=O)O)CC[C@@H]1C ?
Result: Yes

Problem: Same again, this time with CC[C@H](C)C(NC(=O)[C@@H](NC)C(C)C)C(=O)NC1C(=O)N(C)[C@@H](C(C)O)C(=O)N[C@@H](C(C)C)C(=O)N(C)[C@@H](CC(C)C)C(=O)NC(C(C)C)C(=O)N(C)[C@@H](C(C)C)C(=O)N(C)[C@@H](Cc2c[nH]c3cccc(OC)c23)C(=O)N[C@@H](C(C)C)C(=O)N[C@@H]([C@H](O)c2ccccc2)C(=O)N[C@@H](C(C)C)C(=O)O[C@@H]1C (stereo partly drawn) (H-[NMeV][ξIle][ξThr(3R)(O-yl)][NMeThr(3ξ)]V[NMeL][ξV][NMeV][NMeTrp(4-OMe)]V[Phe(3R-OH)]V; ester 3-C)
Result: No

Problem: Same again, this time with C[C@@H]1C(=O)[C@]23CC[C@H]1C[C@]21O[C@H]2C(C)(C)C=CC(=O)[C@@]23COC1=O
Result: Yes

Problem: Same again, this time with CO[C@@H]1[C@H](O)[C@@H](C)O[C@@H](OC[C@@H]2C(C)OC(=O)/C=C/[C@H](C)C(O[C@@H]3O[C@H](C)CC4(OC(=O)O[C@@H]4C)C3O)[C@@H](C)CC(C)C(=O)CC[C@H]3OC23)[C@@H]1OC (some centres not stated)
Result: No
